molecular target: PRMT5/MEP50 (Homo sapiens); construct: Flag-PRMT5; 6His-MEP50; experiment: PRMT5 Biochemical Assay (PRMT5/MEP50 enzyme assay on peptide substrate, 3H-SAM Flashplate)
property_label: IC50

Example cases with answers are listed next.
1) OC(COc1cccc(CNC2CCNCC2)c1)CN1CCc2ccccc2C1 (centres unmarked) [Compound 13]: 1000 to 10000 nM
2) O=C(Nc1ccccn1)c1cccc(OCC(O)CN2CCc3ccccc3C2)c1 (centres unmarked) [Compound 267]: 101 to 1000 nM
3) COc1ccccc1-c1cccc(OCC(O)CN2CCc3ccccc3C2)c1 (centres unmarked) [Compound 71]: 1000 to 10000 nM
4) O=C(Cn1cnc2ccc(-c3cccc(OCC(O)CN4CCc5ccccc5C4)c3)cc21)N1CCCCC1 (centres unmarked) [Compound 249]: 101 to 1000 nM

Here is the next item to consider.
Form field IC50, entry Oc1ccc(-c2cccc(OCC(O)CN3CCc4ccccc4C3)c2)cc1F (centres unmarked) [Compound 70] : 1000 to 10000 nM

###

target: PRMT5/MEP50 (Homo sapiens); construct: Flag-PRMT5; 6His-MEP50; experiment: PRMT5 Biochemical Assay (PRMT5/MEP50 enzyme assay on peptide substrate, 3H-SAM Flashplate)
property_label: IC50

Example cases with answers are listed next.
1. COc1c(COCC(O)CN2CCc3ccccc3C2)ccc2ccccc12 (stereo not drawn) [Compound 279]: 1000 to 10000 nM
2. COc1ccc(Cl)cc1-c1cccc(OCC(O)CN2CCc3ccccc3C2)c1 (stereo not drawn) [Compound 134]: 101 to 1000 nM
3. OC(COc1cccc(-c2cccnc2)c1)CN1CCc2ccccc2C1 (stereo not drawn) [Compound 40]: 1000 to 10000 nM
4. OC(COc1ccc(-n2cncn2)cc1)CN1CCc2ccccc2C1 (stereo not drawn) [Compound 9]: 1000 to 10000 nM
5. OC(COC1CCOCC1)CN1CCc2ccccc2C1 (stereo not drawn) [Compound 310]: 10000 to 40000 nM
6. OC(COC1CCCC1)CN1CCc2ccccc2C1 (stereo not drawn) [Compound 302]: 1000 to 10000 nM

Form field IC50, entry Cn1cnc2ccc(-c3cc(NCC(O)CN4CCc5ccccc5C4)n[nH]3)cc21 (stereo not drawn) [Compound 271] : 101 to 1000 nM

Form field IC50, entry Cn1cnc2cnc(-c3cccc(OCC(O)CN4CCc5ccccc5C4)c3)nc21 (stereo not drawn) [Compound 191] : 101 to 1000 nM

Form field IC50, entry OC(COc1cccc(-c2ccc3c(c2)OCO3)c1)CN1CCc2ccccc2C1 (stereo not drawn) [Compound 59] : 101 to 1000 nM

###

target: PRMT5/MEP50 (Homo sapiens); construct: Flag-PRMT5; 6His-MEP50; experiment: PRMT5 Biochemical Assay (PRMT5/MEP50 enzyme assay on peptide substrate, 3H-SAM Flashplate)
pIC50: −log10 of the molar value.
property_label: pIC50

Example cases with answers are listed next.
1) CC1c2ccccc2CCN1CC(O)COc1cccc(-c2ccc3ncn(C)c3c2)c1 (stereo not drawn) [Compound 80]: 6.00 to 7.00
2) N#Cc1ccccc1-c1cccc(OCC(O)CN2CCc3ccccc3C2)c1 (stereo not drawn) [Compound 93]: 6.00 to 7.00
3) COC(=O)c1cccc(-c2cccc(OCC(O)CN3CCc4ccccc4C3)c2)c1 (stereo not drawn) [Compound 135]: 6.00 to 7.00
4) CC(C)n1ccc(-c2ccc(OCC(O)CN3CCc4ccccc4C3)cc2)n1 (stereo not drawn) [Compound 27]: 5.00 to 6.00
5) CC(C)Oc1ccc(F)c(-c2cccc(OCC(O)CN3CCc4ccccc4C3)c2)c1 (stereo not drawn) [Compound 201]: 6.00 to 7.00
6) Cn1cc2ccc(-c3cc(NCC(O)CN4CCc5ccccc5C4)ncn3)cc2n1 (stereo not drawn) [Compound 224]: 6.00 to 7.00
7) COC(=O)c1cncc(-c2cccc(OCC(O)CN3CCc4ccccc4C3)c2)c1 (stereo not drawn) [Compound 180]: 5.00 to 6.00
8) O=C(NC1CCOCC1)c1cccc(NCC(O)CN2CCc3ccccc3C2)c1 (stereo not drawn) [Compound 79]: 4.40 to 5.00

Here is the next item to consider.
Entry OC(COC1CCCN(c2ccccc2)C1)CN1CCc2ccccc2C1 (stereo not drawn) [Compound 2] under PRMT5/MEP50 (Homo sapiens) had pIC50 of 5.00 to 6.00

###

biological target: PRMT5/MEP50 (Homo sapiens); construct: Flag-PRMT5; 6His-MEP50; test: PRMT5 Biochemical Assay (PRMT5/MEP50 enzyme assay on peptide substrate, 3H-SAM Flashplate)
property_label: IC50

1. O=C(Nc1cc[nH]n1)c1cccc(OCC(O)CN2CCc3ccccc3C2)c1 (stereo not drawn) [Compound 274]: 1000 to 10000 nM
2. OC(COCc1ccccn1)CN1CCc2ccccc2C1 (stereo not drawn) [Compound 282]: 10000 to 40000 nM
3. OC(COCc1ccc(CN2CCOCC2)cc1)CN1CCc2ccccc2C1 (stereo not drawn) [Compound 46]: 1000 to 10000 nM
4. CN(CC(O)CN1CCc2ccccc2C1)c1cccc(C(=O)NC2CCOCC2)c1 (stereo not drawn) [Compound 99]: 10000 to 40000 nM
5. Cn1cnc2ccc(-c3cccc(OCC(O)CN4CCc5c(Cl)cccc5C4)c3)cc21 (stereo not drawn) [Compound 215]: 1000 to 10000 nM
6. OC(COCc1c(Cl)cccc1Cl)CN1CCc2ccccc2C1 (stereo not drawn) [Compound 280]: 1000 to 10000 nM
7. O=C1NCc2ccc(-c3cccc(OCC(O)CN4CCc5ccccc5C4)c3)cc21 (stereo not drawn) [Compound 148]: 101 to 1000 nM
8. Cn1ccc2ccc(-c3cccc(OCC(O)CN4CCc5ccccc5C4)c3)cc21 (stereo not drawn) [Compound 147]: 101 to 1000 nM

Form field IC50, entry Cn1cnc2ccc(N3CCCC(OCC(O)CN4CCc5ccccc5C4)C3)cc21 (stereo not drawn) [Compound 66] : 101 to 1000 nM

###

Quick list: IC50 per entry.
biological target: PRMT5/MEP50 (Homo sapiens, UniProt O14744); construct: Flag-PRMT5; 6His-MEP50; experiment: PRMT5 Biochemical Assay (PRMT5/MEP50 enzyme assay on peptide substrate, 3H-SAM Flashplate)
Sequence (O14744 with tags, fused parts or gaps): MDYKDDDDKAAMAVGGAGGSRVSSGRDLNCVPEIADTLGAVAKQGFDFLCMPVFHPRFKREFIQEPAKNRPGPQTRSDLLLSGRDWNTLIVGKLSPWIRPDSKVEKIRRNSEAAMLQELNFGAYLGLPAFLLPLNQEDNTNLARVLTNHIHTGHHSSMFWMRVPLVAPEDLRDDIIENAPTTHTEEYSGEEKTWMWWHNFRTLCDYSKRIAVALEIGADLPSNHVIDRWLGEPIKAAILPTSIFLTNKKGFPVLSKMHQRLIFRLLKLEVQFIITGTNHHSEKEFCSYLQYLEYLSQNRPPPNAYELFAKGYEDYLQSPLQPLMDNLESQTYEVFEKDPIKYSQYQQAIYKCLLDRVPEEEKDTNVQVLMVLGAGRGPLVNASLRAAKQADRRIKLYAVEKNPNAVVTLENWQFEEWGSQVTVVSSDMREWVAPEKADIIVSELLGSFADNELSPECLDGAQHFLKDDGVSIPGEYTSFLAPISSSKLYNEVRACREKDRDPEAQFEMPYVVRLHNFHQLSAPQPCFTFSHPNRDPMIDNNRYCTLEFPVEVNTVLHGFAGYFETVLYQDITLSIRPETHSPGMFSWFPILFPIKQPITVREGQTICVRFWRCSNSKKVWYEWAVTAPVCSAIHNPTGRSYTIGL
Sequence (Q9BQA1 with tags, fused parts or gaps partner): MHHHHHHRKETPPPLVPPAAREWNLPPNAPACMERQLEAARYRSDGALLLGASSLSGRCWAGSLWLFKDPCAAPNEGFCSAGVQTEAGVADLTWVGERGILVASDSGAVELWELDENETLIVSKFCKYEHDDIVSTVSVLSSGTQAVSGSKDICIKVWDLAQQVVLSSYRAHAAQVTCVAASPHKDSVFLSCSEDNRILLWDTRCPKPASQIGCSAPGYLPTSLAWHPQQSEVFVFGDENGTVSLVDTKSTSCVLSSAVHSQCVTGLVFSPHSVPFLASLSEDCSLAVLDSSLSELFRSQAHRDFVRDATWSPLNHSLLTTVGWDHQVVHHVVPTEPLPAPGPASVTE

Example cases with answers are listed next.
1) COc1ccc(-c2cccc(OCC(O)CN3CCc4ccccc4C3)c2)c(Cl)c1 (centres unmarked): 0.101 to 1 µM
2) OC(COc1cccc(-c2ccc3c(c2)OCCO3)c1)CN1CCc2ccccc2C1 (centres unmarked): 0.101 to 1 µM
3) OC(COc1cccc(-c2cccc(Oc3ccccc3)c2)c1)CN1CCc2ccccc2C1 (centres unmarked): 1 to 10 µM
4) OC(COc1cccc(OCc2ccccc2)c1)CN1CCc2ccccc2C1 (centres unmarked): 1 to 10 µM

Here is the next item to consider.
Form field IC50, entry OC(COc1ccc(Cc2ccccc2)cc1)CN1CCc2ccccc2C1 (centres unmarked) : 0.101 to 1 µM

###

target: PRMT5/MEP50 (Homo sapiens, UniProt O14744); construct: Flag-PRMT5; 6His-MEP50; test: PRMT5 Biochemical Assay (PRMT5/MEP50 enzyme assay on peptide substrate, 3H-SAM Flashplate)
Quick list: IC50 per entry.

1) CNC(=O)c1cccc(-c2cccc(OCC(O)CN3CCc4ccccc4C3)c2)c1 (centres unmarked): 0.101 to 1 µM
2) CC(=O)Nc1cccc(-c2cccc(OCC(O)CN3CCc4ccccc4C3)c2)c1 (centres unmarked): 0.101 to 1 µM
3) NC(=O)c1ccc(-c2cccc(OCC(O)CN3CCc4ccccc4C3)c2)cc1 (centres unmarked): 0.101 to 1 µM

Form field IC50, entry Cc1cc(OCC(O)CN2CCc3ccccc3C2)c(C)cc1CN1CCOCC1 (centres unmarked) : 0.101 to 1 µM

Form field IC50, entry COc1ccc(Cn2cnc3ccc(-c4cccc(OCC(O)CN5CCc6ccccc6C5)c4)cc32)cc1 (centres unmarked) : 0.101 to 1 µM

Form field IC50, entry OC(COc1cccc(-c2ccncc2F)c1)CN1CCc2ccccc2C1 (centres unmarked) : 1 to 10 µM

Form field IC50, entry OC(COc1cccc(-c2ccccc2Cl)c1)CN1CCc2ccccc2C1 (centres unmarked) : 0.101 to 1 µM

Form field IC50, entry CNC(=O)Cn1ccc2cnc(-c3cccc(OCC(O)CN4CCc5ccccc5C4)c3)nc21 (centres unmarked) : 1 to 10 µM

###

Quick list: IC50 per entry.
biological target: PRMT5/MEP50 (Homo sapiens, UniProt O14744); construct: Flag-PRMT5; 6His-MEP50; test: PRMT5 Biochemical Assay (PRMT5/MEP50 enzyme assay on peptide substrate, 3H-SAM Flashplate)

Example cases with answers are listed next.
1) OC(COCC1CCCCC1)CN1CCc2ccccc2C1 (stereo not drawn): 1000 to 10000 nM
2) Cc1cn(C)c2cc(-c3cccc(OCC(O)CN4CCc5ccccc5C4)c3)ccc12 (stereo not drawn): 101 to 1000 nM
3) CC(OCC(O)CN1CCc2ccccc2C1)c1cccnc1 (stereo not drawn): 10000 to 40000 nM
4) OC(COc1ccc(C2CCNCC2)cc1)CN1CCc2ccccc2C1 (stereo not drawn): 1000 to 10000 nM
5) COc1cccc(COCC(O)CN2CCc3ccccc3C2)c1 (stereo not drawn): 1000 to 10000 nM
6) OC(COc1cccc(-c2ccccc2C(F)(F)F)c1)CN1CCc2ccccc2C1 (stereo not drawn): 101 to 1000 nM
7) CS(=O)(=O)Nc1ccc(-c2cccc(OCC(O)CN3CCc4ccccc4C3)c2)cc1 (stereo not drawn): 101 to 1000 nM
8) CCCCNCc1cccc(COCC(O)CN2CCc3ccccc3C2)c1 (stereo not drawn): 101 to 1000 nM
9) COc1ccc(Cl)c(-c2cccc(OCC(O)CN3CCc4ccccc4C3)c2)c1 (stereo not drawn): 1000 to 10000 nM
10) N#CCc1cccc(-c2cccc(OCC(O)CN3CCc4ccccc4C3)c2)c1 (stereo not drawn): 101 to 1000 nM

Entry Cn1cc2cc(-c3cccc(OCC(O)CN4CCc5ccccc5C4)c3)ccc2n1 (stereo not drawn) under PRMT5/MEP50 (Homo sapiens, UniProt O14744) had IC50 of 1000 to 10000 nM

Entry OC(COCc1cc(-c2ccc(Cl)cc2)no1)CN1CCc2ccccc2C1 (stereo not drawn) under PRMT5/MEP50 (Homo sapiens, UniProt O14744) had IC50 of 101 to 1000 nM

Entry OC(COc1cccc(-c2cccnc2F)c1)CN1CCc2ccccc2C1 (stereo not drawn) under PRMT5/MEP50 (Homo sapiens, UniProt O14744) had IC50 of 101 to 1000 nM

Entry CCOC(=O)CC1c2ccccc2CCN1CC(O)COc1cccc(-c2ccc3ncn(C)c3c2)c1 (stereo not drawn) under PRMT5/MEP50 (Homo sapiens, UniProt O14744) had IC50 of 1000 to 10000 nM

Entry OC(COc1ccccc1-c1ccno1)CN1CCc2ccccc2C1 (stereo not drawn) under PRMT5/MEP50 (Homo sapiens, UniProt O14744) had IC50 of 1000 to 10000 nM

Entry Cc1cccc2c1CN(CC(O)COc1cccc(-c3ccc4ncn(C)c4c3)c1)CC2 (stereo not drawn) under PRMT5/MEP50 (Homo sapiens, UniProt O14744) had IC50 of 1000 to 10000 nM

Entry Cn1ncc2ccc(-c3cc(NCC(O)CN4CCc5ccccc5C4)ncn3)cc21 (stereo not drawn) under PRMT5/MEP50 (Homo sapiens, UniProt O14744) had IC50 of 101 to 1000 nM

Entry CC(C)n1nccc1-c1ccc(OCC(O)CN2CCc3ccccc3C2)cc1 (stereo not drawn) under PRMT5/MEP50 (Homo sapiens, UniProt O14744) had IC50 of 10000 to 40000 nM
